Value source: ChEMBL document CHEMBL5346928

- experimental-protocol: Cmax in Sprague-Dawley rat at 1 mg/kg, iv by LC-MS analysis
- Format: ADME, organism-based
- Parameters: dose 1 mg/kg, route iv
- run-conditions: in vivo
measured-endpoint: Cmax (ng/mL)
Give the value in ng/mL but do not write ng/mL after it.

# input Look up and state reported Cmax for `Cc1cccc(C)c1-c1cccc(COc2ccc([S@@+]([O-])CC(=O)O)cc2)c1`
# output 858

---

- experimental-protocol: Half life in Sprague-Dawley rat at 10 mg/kg, po by LC-MS analysis
- Format: ADME, organism-based
- run-conditions: in vivo
measured-endpoint: half-life (h)
Give the value in h but do not write h after it.

# input Look up and state reported half-life for `Cc1cccc(C)c1-c1cccc(COc2ccc([S@@+]([O-])CC(=O)O)cc2)c1`
# output 3.2
